Data provenance is patent US8822530B2.

Answer each item with its documented IC50.
# TGT: UniProtKB P41597
# MEASUREMENT DESCRIPTION: Calcium activity assay on FLIPR Tetra in HEK-Gqi5 cells stably expressing CCR2
Provide only the numeric value, understood in nM.

Query: Name the reported IC50 value associated with the compound `O=S(=O)(Cc1ccccc1)c1ccc(Cl)cc1NS(=O)(=O)c1ccc(Cl)c(C(F)(F)F)c1`
Reply: 538

Query: Which IC50 is listed for `COC(=O)c1cccc(CSc2ccc(Cl)cc2NS(=O)(=O)c2ccc(Cl)c(C(F)(F)F)c2)c1` ?
Reply: 1360

Query: # IC50 lookup, item `O=C(O)c1ccccc1CSc1ccc(F)cc1NS(=O)(=O)c1cc2ccccc2o1`
Reply: 11

Query: Give its IC50 value. Item: `CCNC(=O)c1ccccc1CSc1ccc(Cl)cc1NS(=O)(=O)c1ccc(Cl)c(C(F)(F)F)c1`
Reply: 149

Query: Requested field: IC50. Item: `O=C(O)c1ccccc1CSc1ccc(Cl)cc1NS(=O)(=O)c1ccc(Cl)c(C(F)(F)F)c1`
Reply: 79

Query: Consider the compound `CS(=O)(=O)Nc1cccc(CS(=O)(=O)c2ccc(Cl)cc2NS(=O)(=O)c2cc3ccccc3o2)c1` and give its measured IC50.
Reply: 6570

Query: Entry under review: CS(=O)(=O)Nc1cccc(C[S+]([O-])c2ccc(Cl)cc2NS(=O)(=O)c2cc3ccccc3o2)c1 (stereo not drawn) . Reported IC50?
Reply: 2420

Query: I'd like to know its IC50. The compound in question is `COC(=O)CCS(=O)(=O)c1ccc(Cl)cc1NS(=O)(=O)c1cc2ccccc2o1`
Reply: 225

Query: GET /values?readout=IC50&item= COC(=O)c1cccc(C[S+]([O-])c2ccc(Cl)cc2NS(=O)(=O)c2ccc(Cl)c(C(F)(F)F)c2)c1 (stereo not drawn)
Reply: 3110

###

# TGT: CCR2 receptor (Homo sapiens, UniProt P41597)
# Sequence (P41597 whole entry): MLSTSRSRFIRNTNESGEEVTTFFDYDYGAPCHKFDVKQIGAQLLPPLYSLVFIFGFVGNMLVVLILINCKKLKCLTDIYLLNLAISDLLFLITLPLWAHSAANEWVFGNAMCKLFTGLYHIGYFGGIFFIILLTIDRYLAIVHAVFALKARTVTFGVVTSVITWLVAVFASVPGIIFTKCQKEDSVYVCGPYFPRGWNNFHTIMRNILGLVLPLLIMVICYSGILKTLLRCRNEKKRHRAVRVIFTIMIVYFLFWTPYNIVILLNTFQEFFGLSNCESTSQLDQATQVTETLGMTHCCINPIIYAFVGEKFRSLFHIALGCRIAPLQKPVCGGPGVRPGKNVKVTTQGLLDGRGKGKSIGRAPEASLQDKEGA
# MEASUREMENT DESCRIPTION: Calcium activity assay on FLIPR Tetra in HEK-Gqi5 cells stably expressing CCR2
pIC50: −log10 of the molar value.
Outcome label depends on pIC50 relative to 6: at/above gives Criterion met, below gives Criterion not met.

Query: Given `O=C(O)c1cccc(CSc2ccc(Cl)cc2NS(=O)(=O)c2ccc(Cl)c(C(F)(F)F)c2)c1` , state whether its pIC50 is at least 6.
Reply: Criterion met

Query: I'd appreciate it if you could say whether `O=C(O)c1cccc(CS(=O)(=O)c2ccc(Cl)cc2NS(=O)(=O)c2ccc(Cl)c(C(F)(F)F)c2)c1` has pIC50 at least equal to 6.
Reply: Criterion not met

Query: Test whether the compound CCN(CC)C(=O)CC[S+]([O-])c1ccc(Cl)cc1NS(=O)(=O)c1ccc(Cl)c(C(F)(F)F)c1 (stereo not drawn) records pIC50 of 6 or higher.
Reply: Criterion not met

Query: Hi team, for `O=C(O)CSc1ccc(Cl)cc1NS(=O)(=O)c1cc2ccccc2o1` , is the recorded pIC50 at or above 6?
Reply: Criterion met

Query: Is pIC50 at least 6? Consider `O=C(CCSc1ccc(Cl)cc1NS(=O)(=O)c1ccc(Cl)c(C(F)(F)F)c1)N1CCCC1`
Reply: Criterion not met

Query: Quick check: does O=C(O)c1ccc(C[S+]([O-])c2ccc(Cl)cc2NS(=O)(=O)c2ccc(Cl)c(C(F)(F)F)c2)cc1 (stereo not drawn) have pIC50 greater than or equal to 6?
Reply: Criterion not met
